Molecular target: acyl-CoA:cholesterol O-acyltransferase (ACAT) (Oryctolagus cuniculus)
Construct: The intestinal mucosa of a white rabbit was homogenized and microsomal fraction was obtained by stepwise centrifugation; from tissue; host or cells: intestinal mucosa of white rabbit, microsomal fraction
Sequence (G1SFD9 1-524): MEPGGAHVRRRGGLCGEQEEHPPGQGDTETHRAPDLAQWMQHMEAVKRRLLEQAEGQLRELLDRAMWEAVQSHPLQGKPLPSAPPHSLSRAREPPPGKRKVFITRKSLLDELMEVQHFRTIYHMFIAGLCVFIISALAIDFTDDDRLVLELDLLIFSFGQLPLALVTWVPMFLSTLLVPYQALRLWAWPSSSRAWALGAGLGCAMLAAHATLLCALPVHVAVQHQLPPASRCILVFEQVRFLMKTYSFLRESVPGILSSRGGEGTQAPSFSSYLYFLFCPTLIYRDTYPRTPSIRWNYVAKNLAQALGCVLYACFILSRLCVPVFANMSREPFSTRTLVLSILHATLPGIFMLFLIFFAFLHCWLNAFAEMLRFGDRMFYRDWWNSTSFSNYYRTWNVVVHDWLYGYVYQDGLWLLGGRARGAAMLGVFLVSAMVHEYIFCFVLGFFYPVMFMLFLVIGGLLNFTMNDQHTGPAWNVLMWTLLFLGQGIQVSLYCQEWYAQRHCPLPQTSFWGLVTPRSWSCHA
Experiment: Inhibitory activity on acyl-CoA:cholesterol O-acyltransferase (ACAT), intestinal mucosa microsomal fraction, [1-14C]oleyl-CoA incorporation into cholesterol esters
Assay type: biochemical, white rabbit
Details: 0.01 μM; read-out: Inhibition rate %
endpointLabel: inhibition at 0.01 µM (%)
Numbers only, in %.

Solved entries (count: 5):
# compound, inhibition at 0.01 µM (%)
records = [
    ("COc1ccc2oc(NC(=O)Nc3c(C(C)C)cccc3C(C)C)c(-c3ccccc3Cl)c2c1 [Compound 30]", 58.4),
    ("Cc1ccccc1-c1c(NC(=O)Nc2ccc(F)cc2F)sc2cc3c(cc12)CCCC3 [Compound 119]", 79.5),
    ("Cc1cc2sc(NC(=O)Nc3c(C(C)C)cccc3C(C)C)c(-c3ccccc3Cl)c2cc1C [Compound 81]", 41.4),
    ("CCc1cccc(CC)c1NC(=O)Nc1oc2ccc(Cl)cc2c1-c1ccccc1C [Compound 60]", 82.6),
    ("COc1ccccc1NC(=O)Nc1oc2ccc(Cl)cc2c1-c1ccccc1Cl [Compound 8]", 24.9),
]

For every item below, please supply its inhibition at 0.01 µM.
1. CCc1cccc(CC)c1NC(=O)Nc1oc2ccc(Cl)cc2c1-c1ccccc1Cl [Compound 12]
2. Cc1cccc(C(C)C)c1NC(=O)Nc1sc2cc3c(cc2c1-c1ccccc1Cl)CCCC3 [Compound 98]
3. CC(C)c1cccc(C(C)C)c1NC(=O)Nc1sc2cc3c(cc2c1-c1ccccc1Cl)CCC3 [Compound 89]

// result
82.9
66
44.4
